Catalogue of inhibition readings, one per entry.
Tested on: calpain II (m-calpain), Sus scrofa
Experiment: inhibitors of pig calpain II, primary screen, biochemical, fluorogenic peptide substrate, 1536-well (AID 1236)
Conditions: purified calpain II, 30 min, at 16 µM, hits give high values
The campaign covered roughly 220,000 compounds. About 800 (0.36%) were called active. The full list was thinned out, with actives kept by preference.
Field format: number, assumed %, no unit text.

| molecule | observed.measurement |
| --- | --- |
| COC(=O)c1ccccc1NC(=O)C1CC(=O)N(c2ccc(OC)cc2)C1 (stereo not drawn) | 4.97 |
| COC/C=C/C1=CC2=CC(=O)C(C)(OC(=O)CCC(=O)OC)C(=O)C2=CO1 (stereo not drawn) | -93.8 |
| S=c1[nH]nc(-c2cccs2)n1/N=C/c1cn(-c2ccccc2)nc1-c1ccc(Cl)cc1 | -33.4 |
| CCCCCn1c(=O)c(C(=O)OCC)c(Cl)c2ccccc21 | -1.97 |
| CN(C(=O)CCn1c(=S)oc2ccccc21)C1CCCCC1 | 6.83 |
| C/C(=N/NC(=S)Nc1ccccc1)c1ccc2c(c1)OCO2 | -6.26 |
| CO/N=C/c1ccc(N2CCN(C(=O)c3cccc(Cl)c3)CC2)c([N+](=O)[O-])c1 | 53.5 |
| C/C(=N\NC(=S)NC(C)C)c1ccc(C(C)(C)C)cc1 | 6.32 |

Q) Short answer please: inhibition, calpain II (m-calpain), Sus scrofa, entry Oc1c(Cl)cc(Cl)c(Cl)c1Cc1c(O)c(Cl)cc(Cl)c1Cl
A) 109

====

System: calpain II (m-calpain), Sus scrofa
Assay: inhibitors of pig calpain II, primary screen, biochemical, fluorogenic peptide substrate, 1536-well (AID 1236)
Details: purified calpain II, 30 min, at 16 µM, hits give high values
Hit rate of the full screen: of about 220,000 compounds, about 800 (0.36%) were called active. The sample as a whole holds a higher share of actives than the screen did.
Catalogue of inhibition readings, one per entry.
Field format: number, assumed %, no unit text.

Answered cases to consult:
| compound | target.or.test.system | unit.string | inhibition |
| --- | --- | --- | --- |
| NCCCC[C@@H]1NC(=O)[C@H](CCC(=O)O)NC(=O)c2cc([N+](=O)[O-])cc(I)c2NCC[C@@H](C(N)=O)NC1=O | calpain II (m-calpain), Sus scrofa | % | -13.1 |
| CC1CN/C(=C\C(=O)c2ccc(Br)cc2)C(=O)N1 (centres undefined) | calpain II (m-calpain), Sus scrofa | % | 14.4 |
| COC(=O)Cc1c(O)ccn(Cc2cccc(C(F)(F)F)c2)c1=O | calpain II (m-calpain), Sus scrofa | % | -20.3 |
| Cc1nc(NC2=NC(C(=O)Nc3ccc(Cl)cc3)CC(=O)N2)nc2ccccc12 (centres undefined) | calpain II (m-calpain), Sus scrofa | % | 6.9 |
| CCc1cc(-c2n[nH]c(=S)n2CC(C)C)cs1 | calpain II (m-calpain), Sus scrofa | % | 44.2 |
| CC(O)C(NS(=O)(=O)c1ccc(Cl)cc1)C(=O)OCc1cc([N+](=O)[O-])cc2c1OCOC2 (centres undefined) | calpain II (m-calpain), Sus scrofa | % | -6.26 |

Q) Would you kindly share the measured inhibition for Cc1cc([N+](=O)[O-])c(-c2ccc(/C=N/n3cnnc3)o2)cc1Cl ?
A) 58.9

Q) Would you kindly share the measured inhibition for COc1cc(N/C=C2\CC(=O)NC(C)=C2C#N)cc(OC)c1OC ?
A) -145

Q) Would you kindly share the measured inhibition for Cc1sc2nc(COC(=O)C(NC(=O)c3ccc(Cl)cc3Cl)C(C)C)[nH]c(=O)c2c1C (centres undefined) ?
A) -7.99

Q) Would you kindly share the measured inhibition for CNC(=O)c1csc(Cc2c(Cl)sc3ccc(Cl)cc23)n1 ?
A) 0.86

Q) Would you kindly share the measured inhibition for O=[N+]([O-])c1ccc(N2CCSCC2)cc1O ?
A) 2.99

Q) Would you kindly share the measured inhibition for CC1=NNC(=O)C1CCC(=O)N/N=C(\C)c1ccc(Cl)cc1 (centres undefined) ?
A) -20.4

Q) Would you kindly share the measured inhibition for CCOC(=O)c1c(C)nn(-c2ncccc2NC(=O)CCC(=O)O)c1C ?
A) 10.4

Q) Would you kindly share the measured inhibition for CCn1c(SCC(=O)Nc2ccc(S(=O)(=O)Nc3onc(C)c3C)cc2)nnc1-c1ccccc1 ?
A) -78.3
